Parameter Activity: see the listing below.
# System: Pancreatic beta cell
# PROCEDURE_DETAILS: Residual insulin release in Wistar rat pancreatic islet beta cells in presence of glucose at 1 uM
# Assay type: functional

COMPOUND | TARGET_OR_TEST_SYSTEM | Activity, %
CC1(C)CC(NC(=O)Nc2cccc(Cl)c2)c2cc(F)ccc2O1 (stereo not given) | Pancreatic beta cell | 86
CC1(C)CC(NC(=O)Nc2ccc(Cl)cc2)c2cc(F)ccc2O1 (stereo not given) | Pancreatic beta cell | 91.4
CC1(C)CC(NC(=O)Nc2cccc(Cl)c2)c2cc(Br)ccc2O1 (stereo not given) | Pancreatic beta cell | 91.5
CC1(C)CC(NC(=O)Nc2ccc(Cl)cc2)c2cc(Br)ccc2O1 (stereo not given) | Pancreatic beta cell | 92.2
CC1(C)Oc2ccc(C#N)cc2C(N2CCCC2=O)C1O (racemic) | Pancreatic beta cell | 95.3

---

Parameter Activity: see the listing below.
# Tested on: Pancreatic beta cell
# PROCEDURE_DETAILS: Residual insulin release in Wistar rat pancreatic islet beta cells in presence of glucose at 10 uM
# Format: functional

COMPOUND | Activity, %
Cc1cccc(NC(=O)NC2CC(C)(C)Oc3ccc(Cl)cc32)c1 (stereo unspecified) | 65.8
CC1(C)Oc2ccc(C#N)cc2C(N2CCCC2=O)C1O (racemic) [CROMAKALIM] | 94.4
COc1ccc(NC(=O)NC2CC(C)(C)Oc3ccc(F)cc32)cc1 (stereo unspecified) | 89
COc1ccccc1NC(=O)NC1CC(C)(C)Oc2ccc(F)cc21 (stereo unspecified) | 84.4
CC1(C)CC(NC(=O)Nc2ccc(Cl)cc2)c2cc(Br)ccc2O1 (stereo unspecified) | 25.7
COc1cccc(NC(=O)NC2CC(C)(C)Oc3ccc(Cl)cc32)c1 (stereo unspecified) | 84
COc1cccc(NC(=O)NC2CC(C)(C)Oc3ccc(Br)cc32)c1 (stereo unspecified) | 73.5
CC1(C)CC(NC(=O)Nc2ccccc2)c2cc(F)ccc2O1 (stereo unspecified) | 83.8
CC1(C)CC(NC(=O)Nc2ccccc2Cl)c2cc(Br)ccc2O1 (stereo unspecified) | 41.8
CC1(C)CC(NC(=O)Nc2ccc(Cl)cc2)c2cc(F)ccc2O1 (stereo unspecified) | 22.8
CC1(C)CC(NC(=O)Nc2ccccc2)c2cc(Br)ccc2O1 (stereo unspecified) | 75.9

---

# Test system: Pancreatic beta cell
# PROCEDURE_DETAILS: Residual insulin release in Wistar rat pancreatic islet beta cells in presence of glucose at 10 uM
# Format: functional
Activity below 80% gives F; Activity at or above it gives T.

COMPOUND | LABEL_CLASS
CC1(C)CC(NC(=O)Nc2ccccc2)c2cc(Cl)ccc2O1 (stereo unspecified) | T
Cc1ccccc1NC(=O)NC1CC(C)(C)Oc2ccc(Cl)cc21 (stereo unspecified) | T
COc1cccc(NC(=O)NC2CC(C)(C)Oc3ccc(F)cc32)c1 (stereo unspecified) | F
COc1ccccc1NC(=O)NC1CC(C)(C)Oc2ccc(Cl)cc21 (stereo unspecified) | T

---

Parameter Activity: see the listing below.
# Test system: Pancreatic beta cell
# PROCEDURE_DETAILS: Residual insulin release in Wistar rat pancreatic islet beta cells in presence of glucose at 10 uM
# Type: functional

COMPOUND | Activity [%]
COc1ccc(NC(=O)NC2CC(C)(C)Oc3ccc(Br)cc32)cc1 (stereo unspecified) | 79.2
CC1(C)CC(NC(=O)Nc2cccc(Cl)c2)c2cc(F)ccc2O1 (stereo unspecified) | 28
Cc1ccccc1NC(=O)NC1CC(C)(C)Oc2ccc(F)cc21 (stereo unspecified) | 79
Cc1cccc(NC(=O)NC2CC(C)(C)Oc3ccc(F)cc32)c1 (stereo unspecified) | 75.2
CC1(C)CC(NC(=O)Nc2ccccc2Cl)c2cc(Cl)ccc2O1 (stereo unspecified) | 40.3
CC1(C)CC(NC(=O)Nc2ccccc2Cl)c2cc(F)ccc2O1 (stereo unspecified) | 51.4

---

# Tested on: Pancreatic beta cell
# PROCEDURE_DETAILS: Residual insulin release in Wistar rat pancreatic islet beta cells in presence of glucose at 10 uM
# Format: functional
Could you mark each record Criterion met if its Activity falls strictly under 70%, and Criterion not met if it equals or exceeds it?

MOLECULE | LABEL_CLASS
COc1ccccc1NC(=O)NC1CC(C)(C)Oc2ccc(Br)cc21 (stereo unspecified) | Criterion not met
CC1(C)CC(NC(=O)Nc2cccc(Cl)c2)c2cc(Br)ccc2O1 (stereo unspecified) | Criterion met
Cc1ccc(NC(=O)NC2CC(C)(C)Oc3ccc(Br)cc32)cc1 (stereo unspecified) | Criterion not met
Cc1cccc(NC(=O)NC2CC(C)(C)Oc3ccc(Br)cc32)c1 (stereo unspecified) | Criterion met
